Reported LD50 at 96 h values are given for each entry in this list.
- test: Acute toxicity on mice (oral)
- assay-conditions: mouse, in vivo, p.o., CFLP mice, 20 ml/kg, 4 days observation
Give just the number in mg/kg; leave the unit off.

Clc1ccc(-c2ncn[n+]3ccccc23)cc1 [Compound B]    900
CN(C)CCC=C1c2ccccc2CCc2ccccc21 [Amitriptylin, reference compound]    225
c1ccc(-c2ncn[n+]3ccccc23)cc1 [Compound A]    1400

-- ask Consider the compound Clc1ccc(-c2ncn[n+]3ccc4ccccc4c23)cc1 [Compound C] and give its recorded LD50 at 96 h.
-- reply 600
